Cited source: paper PMC10786891

Listing: Kd of selected binders
- system_under_test: T1, EsCas13d, nuclease-dead (Eubacterium siraeum, UniProt B0MS50, R295A;H300A;R849A;H854A)
- T1 sequence: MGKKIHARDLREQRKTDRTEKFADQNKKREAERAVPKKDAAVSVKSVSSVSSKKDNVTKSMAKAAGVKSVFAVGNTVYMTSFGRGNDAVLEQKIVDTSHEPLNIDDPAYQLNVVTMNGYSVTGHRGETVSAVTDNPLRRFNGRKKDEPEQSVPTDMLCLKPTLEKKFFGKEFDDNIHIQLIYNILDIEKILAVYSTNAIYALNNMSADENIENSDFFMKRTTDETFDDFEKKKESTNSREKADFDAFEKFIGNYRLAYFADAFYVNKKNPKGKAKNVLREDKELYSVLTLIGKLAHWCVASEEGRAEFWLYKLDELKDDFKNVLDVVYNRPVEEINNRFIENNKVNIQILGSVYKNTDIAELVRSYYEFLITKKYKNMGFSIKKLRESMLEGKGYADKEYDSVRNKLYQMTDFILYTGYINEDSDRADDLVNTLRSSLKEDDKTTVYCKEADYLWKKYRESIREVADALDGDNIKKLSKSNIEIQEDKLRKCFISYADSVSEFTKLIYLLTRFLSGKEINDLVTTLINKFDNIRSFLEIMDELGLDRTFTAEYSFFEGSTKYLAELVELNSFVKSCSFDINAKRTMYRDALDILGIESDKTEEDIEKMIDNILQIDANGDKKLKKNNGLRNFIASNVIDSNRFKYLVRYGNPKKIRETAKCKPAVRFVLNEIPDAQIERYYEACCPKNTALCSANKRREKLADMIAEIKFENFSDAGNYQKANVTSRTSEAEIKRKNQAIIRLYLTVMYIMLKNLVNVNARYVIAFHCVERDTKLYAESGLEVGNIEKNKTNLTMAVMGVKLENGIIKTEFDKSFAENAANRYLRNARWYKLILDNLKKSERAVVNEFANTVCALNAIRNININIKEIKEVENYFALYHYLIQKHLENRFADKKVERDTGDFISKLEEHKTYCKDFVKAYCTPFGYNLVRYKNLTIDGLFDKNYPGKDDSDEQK
- experiment_notes: crRNA (strand 1, pre-loaded); Mg2+; 40 mM Tris-HCl pH 7.5, 150 mM NaCl, 6 mM MgCl2, 1 mM DTT, 0.1% Tween-20, 0.2 mg/ml BSA; 25 C; 10 min per concentration, then washed
- measurement_setup: tags: His6-TwinStrep-SUMO cleaved; N-terminal SNAP kept (SNAP-Surface 488); label: 3' end held by stalled T7 RNA polymerase

# example entries with known answers
binder: target 3 insA 3' of 14,insC 3' of 3 (mixed) RNA 1: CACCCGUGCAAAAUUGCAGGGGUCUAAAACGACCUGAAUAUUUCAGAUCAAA RNA 2: GGGAAUGGAUCCACAUCUACGAAUUCGUUUUUGAUCUGAAAAUAUUCAGGCUCUGCAGAUCGGAAGAGCACACGU
Kd: 59 nM

binder: target 2 MT 5'PFS GAU 3'PFS AUU (mixed) RNA 1: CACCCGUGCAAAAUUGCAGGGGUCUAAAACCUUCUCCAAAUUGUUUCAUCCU RNA 2: GGGAAUGGAUCCACAUCUACGAAUUCGAUAGGAUGAAACAAUUUGGAGAAGAUUAGAUCGGAAGAGCACACGU
Kd: 8.3 nM

binder: target 1 MT 5'PFS ACA 3'PFS CAU (mixed) RNA 1: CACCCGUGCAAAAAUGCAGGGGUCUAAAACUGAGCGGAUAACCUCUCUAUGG RNA 2: GGGAAUGGAUCCACAUCUACGAAUUCACACCAUAGAGAGGUUAUCCGCUCACAUAGAUCGGAAGAGCACACGU
Kd: ~20 nM

binder: target 1 MT 5'PFS GCA 3'PFS GGA (mixed) RNA 1: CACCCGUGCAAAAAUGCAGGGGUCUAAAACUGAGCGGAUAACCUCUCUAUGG RNA 2: GGGAAUGGAUCCACAUCUACGAAUUCGCACCAUAGAGAGGUUAUCCGCUCAGGAAGAUCGGAAGAGCACACGU
Kd: 80 nM

Enquiry: Give its Kd value. Item: target 3 A5C,U7A (mixed) RNA 1: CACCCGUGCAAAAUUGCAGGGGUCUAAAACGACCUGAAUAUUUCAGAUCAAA RNA 2: GGGAAUGGAUCCACAUCUACGAAUUCGUUUUUGAUCUGAAAUAUACCGGUCUGCAGAUCGGAAGAGCACACGU
Return: 77.5 nM

Enquiry: Give its Kd value. Item: target 1 MT 5'PFS CAC 3'PFS UCG (mixed) RNA 1: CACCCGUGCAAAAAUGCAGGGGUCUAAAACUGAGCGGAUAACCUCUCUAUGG RNA 2: GGGAAUGGAUCCACAUCUACGAAUUCCACCCAUAGAGAGGUUAUCCGCUCAUCGAGAUCGGAAGAGCACACGU
Return: 8.65 nM

Enquiry: Give its Kd value. Item: target 1 insC 3' of 22,insG 3' of 19 (mixed) RNA 1: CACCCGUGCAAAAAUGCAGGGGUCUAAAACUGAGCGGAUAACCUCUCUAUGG RNA 2: GGGAAUGGAUCCACAUCUACGAAUUCGUACCCAUGAGAGAGGUUAUCCGCUCACCGAGAUCGGAAGAGCACACGU
Return: 64 nM

Enquiry: Give its Kd value. Item: target 1 insU 3' of 14,insA 3' of 10 (mixed) RNA 1: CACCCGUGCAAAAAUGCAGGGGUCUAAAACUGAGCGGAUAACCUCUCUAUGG RNA 2: GGGAAUGGAUCCACAUCUACGAAUUCGUACCAUAGAGAUGGUUAAUCCGCUCACCGAGAUCGGAAGAGCACACGU
Return: 43 nM
